- Tested on: Fusarium oxysporum
- Type: cell-based
- CONDITION SET: 24 h
Where a SMILES comes first, the peptide text is derived from it. [ ]: non-standard residue; d: D form. The star is where a group is joined. X1 = CN1/C(=C/C=C(/C=C/C2=[N+](C)c3ccccc3C2(C)C)c2ccc(C(=O)*)cn2)C(C)(C)c2ccccc21
EXPERIMENTAL READOUT: IC50 Fusarium oxysporum

Sure, the documented IC50 Fusarium oxysporum for CN1/C(=C/C=C(/C=C/C2=[N+](C)c3ccccc3C2(C)C)c2ccc(C(=O)NCCCC[C@@H]3NC(=O)[C@H](Cc4c[nH]c5ccccc45)NC(=O)[C@H](Cc4ccccc4)NC(=O)[C@H](Cc4c[nH]c5ccccc45)NC(=O)[C@@H](Cc4ccccc4)NC(=O)[C@H](CCCCN)NC(=O)[C@H](CCCCN)NC(=O)[C@H](CCCNC(=N)N)NC3=O)cn2)C(C)(C)c2ccccc21 [MFIGAF001c] (cyclo(FWK(X1)RKK[dF]W)) is 1.8 µg/mL

Memo: N=C(N)NCCC[C@@H]1NC(=O)CNC(=O)[C@H](Cc2c[nH]c3ccccc23)NC(=O)[C@H](Cc2ccccc2)NC(=O)[C@H](Cc2c[nH]c3ccccc23)NC(=O)[C@@H](Cc2ccccc2)NC(=O)[C@H](CCCCN)NC(=O)[C@H](CCCCN)NC1=O [MFIGAF001, Cyclo(Arg-Lys-Lys-phe-Trp-Phe-Trp-Gly)] (HELM PEPTIDE1{F.W.G.R.K.K.[dF].W}$PEPTIDE1,PEPTIDE1,1:R1-8:R2$$$V2.0) , reported IC50 Fusarium oxysporum: 1.9 µg/mL

Given item C[C@H]1NC(=O)[C@H](CCCCN)NC(=O)[C@H](CCCCN)NC(=O)[C@H](CCCNC(=N)N)NC(=O)CNC(=O)[C@H](Cc2c[nH]c3ccccc23)NC(=O)[C@H](Cc2ccccc2)NC(=O)[C@H](Cc2c[nH]c3ccccc23)NC1=O [MFIGAF005, Cyclo(Arg-Lys-Lys-ala-Trp-Phe-Trp-Gly)] (HELM PEPTIDE1{F.W.G.R.K.K.[dA].W}$PEPTIDE1,PEPTIDE1,1:R1-8:R2$$$V2.0) , the value recorded as its IC50 Fusarium oxysporum is 3.1 µg/mL
